- System: primary human fetal RPE (hfRPE) culture
- test: Autophagy flux assay with NH4Cl lysosomal alkalinization
- Assay type: cell-based
- test.parameters: inducer 22.5 hours, then 25 mM NH4Cl for final 1.5 hours
measured.property: Autophagy flux: LC3-II/LC3-I ratio after NH4Cl

molecule | recorded.result
COC(=O)Nc1nc2cc(C(=O)c3ccc(F)cc3)ccc2[nH]1 [FLBZ, Flubendazole] | induces autophagy flux
NC(=O)c1ccc(-c2nc(-c3ccc4c(c3)OCCO4)c(-c3ccccn3)[nH]2)cc1 [D4476] | induces autophagy flux
O=C1NC(=O)/C(=C/c2ccc3nccc(-c4ccncc4)c3c2)S1 [GSK, GSK 1059615] | induces autophagy flux
CCC(=O)N1CCN(c2ccc(-n3c(=O)ccc4cnc5ccc(-c6cnc7ccccc7c6)cc5c43)cc2C(F)(F)F)CC1 [Torin, Torin1] | induces autophagy flux

Cited source for all entries: patent US20240058308A1
